# target.or.system: TSPO protein separated and purified from rat heart (Rattus norvegicus (Rat), UniProt P16257)
# assay.comment: TSPO and radioligand (3H-PK11195) competitive binding test
# applied.conditions: 1 × 10^−7M; n = 6 times
# Excerpt: In the present test, TSPO protein separated and purified from rat heart was used as screening target, via competitive binding test with radioligand (^3H-PK11195), to screen TSPO ligand compounds. […]
List of Inhibition rate (%) values.
Report the figure in % without appending any unit label.

compound.smiles	Inhibition rate (%)
COCCN(Cc1cccnc1)C(=O)Cc1c(-c2ccc(C)cc2)nc2cc(C)ccn12.Cl	32
CCN(Cc1ccncc1)C(=O)Cc1c(-c2ccc(Cl)c(Cl)c2)nc2cc(C)ccn12.Cl	85
CCN(Cc1ccccn1)C(=O)Cc1c(-c2ccc(C)cc2)nc2cc(C)ccn12.Cl	66

INPUT: Request the reported Inhibition rate (%) associated with `CCN(Cc1ccccc1)C(=O)Cc1c(-c2ccc(Cl)c(Cl)c2)nc2cc(C)ccn12`
OUTPUT: 72

INPUT: Report Inhibition rate (%) for `CCN(Cc1ccncc1)C(=O)Cc1c(-c2ccc(Cl)cc2)nc2ccc(C)cn12.Cl` please.
OUTPUT: 33

INPUT: Dear colleague, I am looking for the recorded Inhibition rate (%) of the following molecule: `COCCN(Cc1ccccn1)C(=O)Cc1c(-c2ccc(C)cc2)nc2cc(C)ccn12.Cl`
OUTPUT: 9

INPUT: Dear colleague, I am looking for the recorded Inhibition rate (%) of the following molecule: `COCCN(Cc1cccnc1)C(=O)Cc1c(-c2ccc(Cl)c(Cl)c2)nc2cc(C)ccn12.Cl`
OUTPUT: 20

INPUT: Entry `CCN(Cc1ccncc1)C(=O)Cc1c(-c2ccc(Cl)cc2)nc2cc(C)ccn12.Cl` : reported Inhibition rate (%) = ?
OUTPUT: 50

INPUT: May I ask what Inhibition rate (%) has been recorded for `CCN(Cc1ccncc1)C(=O)Cc1c(-c2ccc(C)cc2)nc2ccc(C)cn12.Cl` ?
OUTPUT: 65
